Data origin, for the record: the OPERA property sets (Mansouri et al. 2018)

Could you please report measured logP for the items listed next?
Reply briefly: the number, and no unit.

GET /value?item= O=[N+]([O-])c1cccc(O)c1 &field=logP returns 2

GET /value?item= CN(C)C(=O)OCc1ccc(C(F)(F)F)cc1 &field=logP returns 3.08

GET /value?item= C=CCC1(C2C=CCC2)C(=O)NC(=O)NC1=O (configuration not stated) &field=logP returns 1.51

GET /value?item= Cc1ccc(S(I)=C(N(C)C)N(C)C)cc1 (configuration not stated) &field=logP returns -0.1

GET /value?item= CCN(CC)CCNC(=O)c1cc(Cl)ccc1OC &field=logP returns 3.11

GET /value?item= Brc1ccoc1 &field=logP returns 2.18

GET /value?item= CCCCCOC1OC(CO)C(O)C(O)C1O (configuration not stated) &field=logP returns -0.42

GET /value?item= Cn1c(CO)cnc1[N+](=O)[O-] &field=logP returns -0.35

GET /value?item= N#C/C=C/C#N &field=logP returns -0.25

GET /value?item= Nc1cc(N2CCCCC2)nc(N)[n+]1[O-] &field=logP returns 1.24

GET /value?item= CBr &field=logP returns 1.19

GET /value?item= CN(C)C(=N)N(C)C &field=logP returns 0.41

GET /value?item= CC(=O)OCC(=O)[C@@]1(O)[C@@H](C)C[C@H]2[C@@H]3CCC4=CC(=O)C=C[C@]4(C)[C@@]3(F)[C@@H](O)C[C@@]21C &field=logP returns 2.77

GET /value?item= Cc1cc(C)c(C)c(C)c1C &field=logP returns 4.56

GET /value?item= O=S1(=O)NC(C(F)(F)F)=Nc2cc(Cl)ccc21 &field=logP returns 1.65

GET /value?item= C1COCCOCCOCCO1 &field=logP returns -0.04

GET /value?item= NC(=O)c1ccc(N)cc1 &field=logP returns -0.41

GET /value?item= Cc1ccc(NC(=O)c2ccccc2)c(O)c1 &field=logP returns 3.08

GET /value?item= O=C(OCCc1ccccc1)c1ccccc1 &field=logP returns 4.01

GET /value?item= CCOC(=O)C(=Cc1ccc(Cl)c(Cl)c1)C(C)=O &field=logP returns 3.92

GET /value?item= Cc1cccc(C)c1NC(=O)C1CNCCN1 (configuration not stated) &field=logP returns 0.38

GET /value?item= Cc1ncc([N+](=O)[O-])n1CCNC(=O)OCc1ccccc1 &field=logP returns 1.69

GET /value?item= C=CCCCCCC &field=logP returns 4.57

GET /value?item= CCCN(CCC)N=O &field=logP returns 1.36

GET /value?item= Nc1ccc(S(=O)(=O)c2ccc(N)cc2)cc1 &field=logP returns 0.97

GET /value?item= O=S1OCC2C(CO1)C1(Cl)C(Cl)=C(Cl)C2(Cl)C1(Cl)Cl (configuration not stated) &field=logP returns 3.83

GET /value?item= Clc1cnc(Cl)c(Cl)c1 &field=logP returns 3.11

GET /value?item= Nc1ccc2ccccc2c1 &field=logP returns 2.28

GET /value?item= NC(=O)Nc1nc(-c2ccccc2)no1 &field=logP returns 1.76

GET /value?item= Clc1cc(-c2ccccc2)c(Cl)c(Cl)c1Cl &field=logP returns 6.41

GET /value?item= CC(=O)c1ccc(Br)cc1 &field=logP returns 2.43

GET /value?item= CN(C)C(N(C)C)=S(I)c1ccccc1Cl (configuration not stated) &field=logP returns -0.19

GET /value?item= COC(=O)c1ccc(NC(C)=O)cc1 &field=logP returns 1.79

GET /value?item= O=C(O)COc1ccc2c(c1)CCC2 &field=logP returns 2.33

GET /value?item= COc1ccc(C=O)cc1C &field=logP returns 2.23

GET /value?item= C=CCC1(C(C)CCC)C(=O)NC(=O)NC1=O (configuration not stated) &field=logP returns 1.97

GET /value?item= CCCCC(CC)COC(=O)n1cnc(CC(NC(=O)C2CCC(=O)N2)C(=O)N2CCCC2C(N)=O)c1 (configuration not stated) &field=logP returns 1.82

GET /value?item= CCCc1ccccc1O &field=logP returns 2.93

GET /value?item= CC(=O)[C@H]1CC[C@H]2[C@@H]3CC=C4C[C@@H](O)CC[C@]4(C)[C@H]3CC[C@]12C &field=logP returns 4.22

GET /value?item= Cc1ccc(N=C=S)cc1 &field=logP returns 3.92

GET /value?item= O=c1ccc(=O)[nH][nH]1 &field=logP returns -0.84

GET /value?item= CCN(CC)C(=O)N(CC)N=O &field=logP returns 1.54

GET /value?item= Nc1ccccc1SSc1ccccc1N &field=logP returns 3.05

GET /value?item= Cc1ccc(S(I)=C(N(C)C)N(C)C)cc1Cl (configuration not stated) &field=logP returns 0.45

GET /value?item= CCOC(=O)CON=Cc1ccc(OCCOC(=O)CC)c(OC)c1 &field=logP returns 2.39

GET /value?item= NNC(=O)c1ccccc1Br &field=logP returns 0.26

GET /value?item= OCCO &field=logP returns -1.36

---

Peptide text beside a SMILES is read from it.
parameter: logP
Reply briefly: the number, and no unit.

GET /value?item= CCCCCCc1ccc(C(=O)OCCN(C)C)cc1 &field=logP returns 5.2

GET /value?item= C=C(F)F &field=logP returns 1.24

GET /value?item= COP(=O)(OC)OC(=CCl)c1cc(Cl)c(Cl)cc1Cl &field=logP returns 3.53

GET /value?item= CCC1(C2=CCCCCC2)C(=O)NC(=O)NC1=O &field=logP returns 2.03

GET /value?item= S=C1CCCO1 &field=logP returns 0.6

GET /value?item= O=C(Nc1ccn(C2OC(CO)C(O)C2O)c(=O)n1)c1ccccc1 (stereo unspecified) &field=logP returns 0.3

GET /value?item= Cc1[nH]cnc1CSCCNc1nc(=O)cc[nH]1 &field=logP returns 0.02

GET /value?item= Cn1cc2ccc([N+](=O)[O-])cc2n1 &field=logP returns 1.76

GET /value?item= CCOP(=O)(N=C1SCC(C)S1)OCC (stereo unspecified) &field=logP returns 1.04

GET /value?item= O=C(O)C1CCCCC1 &field=logP returns 1.96

GET /value?item= CN(C)C(N(C)C)=S(I)c1cccc(I)c1 (stereo unspecified) &field=logP returns 0.29

GET /value?item= COC(=O)C(C)N(C(=O)c1ccco1)c1c(C)cccc1C (stereo unspecified) &field=logP returns 2.61

GET /value?item= COc1ccc2c(c1)nc(N)n2C &field=logP returns 0.87

GET /value?item= NC(Cc1ccc2ccccc2c1)C(=O)O (stereo unspecified) &field=logP returns -0.15

GET /value?item= Oc1cc(O)cc(O)c1 &field=logP returns 0.16

GET /value?item= CCC(C)C(NC(C)=O)C(=O)NC(Cc1ccccc1)C(=O)NC(C)C(N)=O (stereo not drawn) (Ac-Ile-Phe-Ala-NH2; configuration not given here) &field=logP returns 0.52

GET /value?item= O=NN(CCCl)C(=O)NC1C(O)CCCC1O (stereo unspecified) &field=logP returns 0.16

GET /value?item= CS(=O)(=O)Nc1ccc(Cl)cc1 &field=logP returns 1.85

GET /value?item= O=C(O)c1ccccc1Nc1ccccc1 &field=logP returns 4.36

GET /value?item= O=C1NC(=O)c2ccccc21 &field=logP returns 1.15

GET /value?item= CCOC(=O)C(=Cc1cccc(Cl)c1)C(C)=O &field=logP returns 2.97

GET /value?item= c1ccc(COCc2ccccc2)cc1 &field=logP returns 3.31

GET /value?item= O=[N+]([O-])c1ccc2cccccc1-2 &field=logP returns 2.59

GET /value?item= O=c1[nH]c(=O)c2[nH]cnc2[nH]1 &field=logP returns -0.73

GET /value?item= NC(=O)c1ccc(C(O)C(CO)NC(=O)C(Cl)Cl)cc1 (stereo unspecified) &field=logP returns -0.48

GET /value?item= COC(=O)c1cnc([N+](=O)[O-])n1C &field=logP returns 0.51

GET /value?item= O=[N+]([O-])CCO &field=logP returns -0.42

GET /value?item= NS(=O)(=O)c1cccc(Cl)c1 &field=logP returns 1.29

GET /value?item= CS(=O)(=O)CC#N &field=logP returns -1.42

GET /value?item= Oc1ccc(Cl)c(O)c1 &field=logP returns 1.8

GET /value?item= Nc1ccc(S(=O)(=O)Nc2ccccc2)cc1 &field=logP returns 1.55

GET /value?item= CCOC(=O)CC(SP(=S)(OC)OC)C(=O)OCC (stereo unspecified) &field=logP returns 2.36

GET /value?item= CN(C)CC(CN1c2ccccc2Sc2ccccc21)N(C)C (stereo unspecified) &field=logP returns 4.76

GET /value?item= C=CNP(=O)(NC=C)NC(=O)c1ccc(OC)cc1 &field=logP returns 1.08

GET /value?item= C=CC=C &field=logP returns 1.99

GET /value?item= [N-]=[N+]=CC(=O)NCC(N)=O &field=logP returns -1.26

GET /value?item= NC(=O)Nc1ccccc1F &field=logP returns 0.88

GET /value?item= Nc1cccc([N+](=O)[O-])c1N &field=logP returns 1.27

GET /value?item= CN(N=O)C(=O)Nc1ccc(F)cc1 &field=logP returns 1.88

GET /value?item= Fc1cccc(F)n1 &field=logP returns 1.17

GET /value?item= CCCCCOc1cccc(O)c1 &field=logP returns 3.63

GET /value?item= CCCCCCCOC(=O)c1ccc(O)cc1 &field=logP returns 4.83

GET /value?item= c1ccc(-c2cc(-c3ccccc3)c(NCCN3CCOCC3)nn2)cc1 &field=logP returns 3.38

GET /value?item= Nc1cccc(S(N)(=O)=O)c1 &field=logP returns -0.38

GET /value?item= CSc1ccc2ccccc2n1 &field=logP returns 3.04

GET /value?item= O=S(=O)(c1ccccc1)c1ccccc1 &field=logP returns 2.4

GET /value?item= c1ccc2[se]ccc2c1 &field=logP returns 3.19

GET /value?item= O=[N+]([O-])c1ccc(CCO)cc1 &field=logP returns 1.12

GET /value?item= CCCCOCc1ccccc1NC(=O)OCCN1CCCCC1 &field=logP returns 3.94

GET /value?item= C[N+](C)(C)Cc1ccccc1.[Cl-] &field=logP returns -2.17

GET /value?item= Nc1ccc(C[C@H](N)C(=O)O)cc1 &field=logP returns -2.2
